TESTED_ON: human ether-à-go-go-related gene (hERG) potassium channel (human, UniProt Q12809)
Sequence (Q12809 whole entry, looked up): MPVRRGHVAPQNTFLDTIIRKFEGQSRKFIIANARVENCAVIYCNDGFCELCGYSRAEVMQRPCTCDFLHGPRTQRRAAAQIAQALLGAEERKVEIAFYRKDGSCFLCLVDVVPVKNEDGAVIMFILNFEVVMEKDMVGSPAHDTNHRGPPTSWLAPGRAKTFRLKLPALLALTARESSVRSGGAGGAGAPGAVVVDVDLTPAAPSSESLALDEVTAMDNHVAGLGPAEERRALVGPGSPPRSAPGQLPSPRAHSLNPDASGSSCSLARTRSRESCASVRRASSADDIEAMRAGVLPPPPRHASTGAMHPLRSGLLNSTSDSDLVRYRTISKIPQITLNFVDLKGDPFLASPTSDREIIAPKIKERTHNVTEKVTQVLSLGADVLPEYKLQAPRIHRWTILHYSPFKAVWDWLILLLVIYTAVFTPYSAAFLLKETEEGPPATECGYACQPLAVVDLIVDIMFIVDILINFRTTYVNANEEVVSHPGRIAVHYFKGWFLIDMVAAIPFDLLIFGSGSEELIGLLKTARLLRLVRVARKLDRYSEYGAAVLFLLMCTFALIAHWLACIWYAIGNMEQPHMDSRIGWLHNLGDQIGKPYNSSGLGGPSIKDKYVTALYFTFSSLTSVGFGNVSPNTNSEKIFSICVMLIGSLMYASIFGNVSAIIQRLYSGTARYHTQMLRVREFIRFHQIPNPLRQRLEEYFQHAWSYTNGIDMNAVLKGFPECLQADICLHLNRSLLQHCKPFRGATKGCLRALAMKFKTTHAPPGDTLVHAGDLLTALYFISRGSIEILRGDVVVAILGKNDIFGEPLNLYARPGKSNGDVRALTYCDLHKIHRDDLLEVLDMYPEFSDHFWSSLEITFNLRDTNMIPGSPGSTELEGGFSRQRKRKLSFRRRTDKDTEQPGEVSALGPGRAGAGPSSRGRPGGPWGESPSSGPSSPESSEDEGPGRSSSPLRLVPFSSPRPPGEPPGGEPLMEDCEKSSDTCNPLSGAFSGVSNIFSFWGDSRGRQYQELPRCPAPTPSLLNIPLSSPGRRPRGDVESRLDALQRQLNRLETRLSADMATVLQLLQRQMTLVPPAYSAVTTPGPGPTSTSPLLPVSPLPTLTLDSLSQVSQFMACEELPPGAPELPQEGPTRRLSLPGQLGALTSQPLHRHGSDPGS
ASSAY_DETAILS: primary screen, population patch clamp on CHO cells stably expressing hERG; higher = less effect of the substance
Among all 310,000 compounds or so, about 2,200 (0.71%) showed an effect of 50% or more. The effect is printed as a negative number. The entries come from a sample that favours strong results as a whole.
# hERG current change (%, negative = inhibition) at 1uM listing for each entry below
Report only the number, with the unit % understood.

Solved entries:
Cl.OCCN1CCN(c2nc(NCc3ccco3)c3ccccc3n2)CC1 :: -39.4
O=C(c1ccc(F)cc1)N1CCN(C(=O)c2ccc([N+](=O)[O-])cc2)CC1 :: -13.7
Cl.c1ccc(CNc2nc(N3CCN(Cc4ccccc4)CC3)nc3ccccc23)cc1 :: 10.4
Cl.c1ccc(CN2CCN(c3nc(NCc4ccco4)c4ccccc4n3)CC2)cc1 :: -54.5

[Q] What does the record list as hERG current change (%, negative = inhibition) at 1uM for COc1ccc(CCNC(=O)CO/N=C/c2cc3c(cc2Br)OCO3)cc1OC ?
[A] 14.5

[Q] Now this one: CC(C)(C)C1CCC(OC(=O)CN2CCCCC2)CC1 (stereo not shown)
[A] 2.3

[Q] Try this compound next: C#CC1CN(Cc2ccccc2)CC(C#C)N1C.Cl (stereo not shown)
[A] 15.1

[Q] Repeat for the following compound: Cl.c1ccc(N2CCN(c3nc(NCc4ccco4)c4ccccc4n3)CC2)cc1
[A] -9.89

[Q] Same again, this time with Cl.c1coc(CNc2nc(N3CCCCC3)nc3ccccc23)c1
[A] -80.8

[Q] Also need Cl.OCCNc1nc(N2CCCCC2)nc2ccccc12 , thanks.
[A] -18.4
